Data origin, for the record: ChEMBL document CHEMBL4689842

System: Fibroblast
Experiment Summary: Multiplex assay against human fibroblast
Type: toxicity, cell-based
Condition Context: 48 h, 10 µM, compound concentration 10 uM, replicate 1
Experimental Endpoint: Population Healthy Nuclei (%)
Form entry: value (%) — number only.

Q. Which value of Population Healthy Nuclei (%) has been reported for `CNC(=O)Nc1ccc(-c2nc(N3CC4CCC(C3)O4)c3cnn(C4CCC5(CC4)OCCO5)c3n2)cc1` in the records?
A. 37

Q. Next entry: `CC(C)OC(=O)N1CCC(Oc2ncnc3c2cnn3-c2ccc(S(C)(=O)=O)cc2F)CC1`
A. 51

Q. Now give it for `COC(=O)C1=C(C)NC(C)=C(C(=O)OCCCN2CCC(c3ccccc3)(c3ccccc3)CC2)[C@H]1c1cccc([N+](=O)[O-])c1` too.
A. 22

Q. Now this one: `CCc1ccc(OCc2ccccc2C(=O)Nc2ccc3nc(C)cc(N)c3c2)cc1.Cl`
A. 28

Q. Request: `COc1ccc(-c2ccc3ncc4c(c3c2)n(-c2ccc(N3CCNCC3)c(C(F)(F)F)c2)c(=O)n4C)cn1.O=C(O)/C=C\C(=O)O`
A. 37
